System name: Man(a1-2)Man(a1-3)Man
Procedure details: glycan array binding signal (z-score within array); higher = stronger binding
Assay conditions: glycan notation: IUPAC condensed, linker removed
Shown is part of a subset that was picked to be rich in the strongest signals.
Test readout: glycan array binding signal (z-score)

Binder	glycan array binding signal (z-score)
Dectin2 (Homo sapiens), Q6EIG7 (protein) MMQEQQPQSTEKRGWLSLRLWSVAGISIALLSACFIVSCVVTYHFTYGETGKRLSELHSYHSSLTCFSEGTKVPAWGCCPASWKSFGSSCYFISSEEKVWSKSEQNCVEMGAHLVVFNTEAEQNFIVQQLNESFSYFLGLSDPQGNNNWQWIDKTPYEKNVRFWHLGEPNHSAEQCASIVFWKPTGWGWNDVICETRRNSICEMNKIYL	4.35
HHL-2 (Homo sapiens), P07307 (protein) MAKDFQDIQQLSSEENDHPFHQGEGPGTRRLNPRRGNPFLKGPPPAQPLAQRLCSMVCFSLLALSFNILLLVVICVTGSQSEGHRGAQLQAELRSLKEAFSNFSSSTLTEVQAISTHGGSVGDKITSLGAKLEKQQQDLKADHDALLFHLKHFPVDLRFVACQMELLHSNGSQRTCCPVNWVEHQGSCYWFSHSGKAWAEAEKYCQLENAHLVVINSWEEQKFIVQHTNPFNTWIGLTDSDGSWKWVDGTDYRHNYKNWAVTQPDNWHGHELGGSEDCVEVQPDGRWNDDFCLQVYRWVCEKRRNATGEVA	-0.028
Calsepa (Calystegia sepium), P93114 (protein) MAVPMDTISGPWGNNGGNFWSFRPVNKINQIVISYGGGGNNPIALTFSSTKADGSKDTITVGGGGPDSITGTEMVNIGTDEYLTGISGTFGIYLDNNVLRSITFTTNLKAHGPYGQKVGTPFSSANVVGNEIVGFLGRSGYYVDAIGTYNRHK	-0.248
CrataBL (Crataeva tapia), C0HJA4 (protein) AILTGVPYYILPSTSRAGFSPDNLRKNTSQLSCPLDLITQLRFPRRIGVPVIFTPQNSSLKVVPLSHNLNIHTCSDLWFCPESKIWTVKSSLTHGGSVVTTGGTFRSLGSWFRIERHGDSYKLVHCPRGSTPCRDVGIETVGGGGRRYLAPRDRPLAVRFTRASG	-0.472
Langerin K299A/K313A (Homo sapiens), Q9UJ71 (protein) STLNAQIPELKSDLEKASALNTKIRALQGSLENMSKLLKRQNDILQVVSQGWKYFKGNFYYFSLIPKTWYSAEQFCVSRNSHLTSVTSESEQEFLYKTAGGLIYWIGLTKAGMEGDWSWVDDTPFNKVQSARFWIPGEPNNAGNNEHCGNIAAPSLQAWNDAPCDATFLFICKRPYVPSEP	-1.07
PILRa (Homo sapiens), Q9UKJ1 (protein) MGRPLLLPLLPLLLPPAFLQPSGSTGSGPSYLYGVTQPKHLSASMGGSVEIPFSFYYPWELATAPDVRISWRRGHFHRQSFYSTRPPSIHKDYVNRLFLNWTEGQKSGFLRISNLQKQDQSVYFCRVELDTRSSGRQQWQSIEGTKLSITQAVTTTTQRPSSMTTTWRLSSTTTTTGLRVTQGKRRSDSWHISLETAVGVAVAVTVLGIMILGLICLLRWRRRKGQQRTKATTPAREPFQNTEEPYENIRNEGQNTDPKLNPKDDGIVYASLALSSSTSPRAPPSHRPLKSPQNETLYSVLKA	-0.144
EUL D1A first (Oryza sativa) (protein) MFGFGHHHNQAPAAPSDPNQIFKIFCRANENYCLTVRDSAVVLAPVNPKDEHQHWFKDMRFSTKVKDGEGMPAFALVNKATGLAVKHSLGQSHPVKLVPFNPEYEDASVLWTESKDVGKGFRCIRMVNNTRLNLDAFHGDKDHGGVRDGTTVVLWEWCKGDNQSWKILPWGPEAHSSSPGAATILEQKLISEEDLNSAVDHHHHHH	0.615
Banana lectin (Musa acuminata) (protein) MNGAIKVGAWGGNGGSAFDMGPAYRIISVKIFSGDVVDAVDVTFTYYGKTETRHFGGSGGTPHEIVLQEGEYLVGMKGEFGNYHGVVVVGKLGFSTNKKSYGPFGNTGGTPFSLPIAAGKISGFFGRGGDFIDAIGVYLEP	5.44
Ovorubin (Pomacea canaliculata), J7I2T6 (protein) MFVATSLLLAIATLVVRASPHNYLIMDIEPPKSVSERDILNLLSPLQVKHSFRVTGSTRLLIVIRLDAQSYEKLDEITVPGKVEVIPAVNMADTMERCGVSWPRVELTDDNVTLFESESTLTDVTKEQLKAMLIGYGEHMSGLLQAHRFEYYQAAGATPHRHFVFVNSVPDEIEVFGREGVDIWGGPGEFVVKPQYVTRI	0.255

Note: attention shifts to another entry.
In plain terms, MD-2 (Homo sapiens) (protein) MLPFLFFSTLFSSIFTEAQKQYWVCNSSDASISYTYCDKMQYPISINVNPCIELKGSKGLLHIFYIPRRDLKQLYFNLYITVNTMNLPKRKEVICRGSDDDYSFCRALKGETVNTTISFSFKGIKFSKGKYKCVVEAISGSPEEMLFCLEFVILHQPNSN has a documented glycan array binding signal (z-score) of -0.386
